For each record, write down the corresponding pEC50.
- Test system: U2OS_Bim cells
- assaySummary: Apoptosis inhibition assay (Bim-induced apoptosis, cell viability by ATP level)
- Format: cell-based
- settings: U2OS_Bim cells; means of duplicates; numbering of Tables 4a/4b; read-out: EC50
pEC50: −log10 of the molar value.

Ask | GET /values?readout=pEC50&item= COc1ccc(Cn2cc(-c3cc(C(F)F)nc([S+]([O-])CCC(OCc4ccccc4)c4ccccc4)n3)ccc2=O)cc1OC (centres unmarked)
Reply | 6.00 to 9.00

Ask | Try the compound Cc1cc(-c2cc(F)c(=O)n(Cc3cccc4c3OCO4)c2)nc(S(=O)(=O)CCC(OCc2ccccc2F)c2ccccc2)n1 (centres unmarked)
Reply | 6.00 to 9.00

Ask | Try the compound COc1ccc(Cn2cc(-c3cc(C)nc(S(C)(=O)=O)n3)cc(F)c2=O)cc1OC
Reply | 5.00 to 6.00

Ask | Try the compound CS(=O)(=O)c1nc(-c2ccc(C(=O)O)cc2)cc(C(F)(F)F)n1
Reply | > 4.00

Ask | Try the compound C#CCOc1cccc(-c2cc(C(F)(F)F)nc([S+](C)[O-])n2)c1 (centres unmarked)
Reply | 5.00 to 6.00

Ask | Try the compound O=S(=O)(CCC(Cl)c1ccccc1)c1nc(-c2cccs2)cc(C(F)(F)F)n1 (centres unmarked)
Reply | 5.00 to 6.00

Ask | Try the compound COc1ccc(Cn2cc(-c3cc(C(F)(F)F)nc([S+](C)[O-])n3)ccc2=O)cc1 (centres unmarked)
Reply | 6.00 to 9.00

Ask | Try the compound CS(=O)(=O)c1nc(-c2ccc(=O)[nH]c2)cc(C(F)(F)F)n1
Reply | > 4.00
